Measured Sugarbeets plant response rating of individual entries
# System: sugar beet
# assay_remarks: Test B pre/postemergence sugar beet
# Type: in vivo, Beta vulgaris
# setup_conditions: Preemergence, Rate 500 g/ha; scale 0 to 10 (0 no effect, 10 complete control)
Just the number, please.

Documented Sugarbeets plant response rating of CC(C)N(C(=O)n1oc(=O)n(C(C)C)c1=O)c1ccccc1 [Compound 113] : 10

Documented Sugarbeets plant response rating of C=CCn1c(=O)on(C(=O)N(c2ccc(F)cc2F)C2CC2)c1=O [Compound 127] : 0

Documented Sugarbeets plant response rating of Cc1ccccc1-n1c(=O)on(C(=O)N(c2cccc(F)c2F)C(C)C)c1=O [Compound 171] : 0

Documented Sugarbeets plant response rating of CC(C)N(C(=O)n1oc(=O)n(Cc2ccccc2)c1=O)c1ccc(Cl)cc1 [Compound 106] : 2

Documented Sugarbeets plant response rating of CC(C)N(C(=O)n1oc(=O)n(Cc2ccccc2Cl)c1=O)C1=CCCCC1 [Compound 145] : 3

----------
Measured Plant response rating, I. Ryegrass of individual entries
# Test system: Italian ryegrass
# assay_remarks: Test E Italian ryegrass
# Assay type: in vivo, Lolium multiflorum
# setup_conditions: Preemergence, Rate 500 g/ha; 0 to 100 scale (0 no effect, 100 complete control)
Just the number, please.

A selection of reference data follows.
>>> reported_measurement("CC1Cc2cccc(-n3c(=O)on(C(=O)N(c4ccc(F)cc4)C(C)C)c3=O)c2O1 (centres unmarked)")
60
>>> reported_measurement("CC(C)N(C(=O)n1oc(=O)n(C2CCC2)c1=O)c1ccc(F)cc1F")
60

Documented Plant response rating, I. Ryegrass of CC1CC1n1c(=O)on(C(=O)N(c2ccc(F)cc2)C(C)C)c1=O (centres unmarked) : 90

Documented Plant response rating, I. Ryegrass of CC(C)N(C(=O)n1oc(=O)n(CC2CCOC2)c1=O)c1ccc(F)cc1 (centres unmarked) : 65

Documented Plant response rating, I. Ryegrass of `CCN(C(=O)n1oc(=O)n(C(C)C)c1=O)C1CCCCC1` : 60

----------
# Tested on: crabgrass
# assay_remarks: Test B pre/postemergence crabgrass
# Assay type: in vivo, Digitaria sanguinalis
# setup_conditions: Preemergence, Rate 250 g/ha
property_name: Crabgrass plant response rating (0 to 10 scale)
Just the number, please.

A selection of reference data follows.
>>> reported_measurement("COCCOCn1c(=O)on(C(=O)N(c2ccc(Cl)cc2)C(C)C)c1=O")
10
>>> reported_measurement("CC(C)N(C(=O)n1oc(=O)n(C[Si](C)(C)C)c1=O)c1ccc(Cl)cc1")
10
>>> reported_measurement("CCC(=O)Cn1c(=O)on(C(=O)N(c2ccc(F)cc2F)C(C)C)c1=O")
9

Fill in: crabgrass Crabgrass plant response rating (0 to 10 scale) for `CC(C)N(C(=O)n1oc(=O)n(CC2CCC2)c1=O)c1ccc(Cl)cc1` = 10

----------
# Tested on: surinam grass
# assay_remarks: Test B pre/postemergence surinam grass
# Format: in vivo, Brachiaria decumbens
# setup_conditions: Postemergence, Rate 62 g/ha; scale of 0 to 10, 0 is no effect, 10 is complete control
property_name: B. signalgrass plant response rating
Just the number, please.

>>> reported_measurement("CC(=O)OCCCCn1c(=O)on(C(=O)N(c2ccc(Cl)cc2)C(C)C)c1=O")
0
>>> reported_measurement("CCCCCn1c(=O)on(C(=O)N(c2ccccc2)C(C)C)c1=O")
0
>>> reported_measurement("CC(C)N(C(=O)n1oc(=O)n(CC2CCC2)c1=O)c1ccc(Cl)cc1")
0
>>> reported_measurement("CC(C)N(C(=O)n1oc(=O)n(CCCF)c1=O)c1ccc(F)cc1F")
3

Documented B. signalgrass plant response rating of `C=CCCCn1c(=O)on(C(=O)N(c2ccccc2)C(C)C)c1=O` : 0

----------
Measured Plant response rating, B. signalgrass of individual entries
# System: surinam grass
# assay_remarks: Test B pre/postemergence surinam grass
# Format: in vivo, Brachiaria decumbens
# setup_conditions: Preemergence, Rate 125 g/ha; scale 0 to 10 (0 no effect, 10 complete control)
Just the number, please.

A selection of reference data follows.
>>> reported_measurement("COc1cccc(C)c1-n1c(=O)on(C(=O)N(c2ccccc2)C(C)C)c1=O [Compound 73]")
0
>>> reported_measurement("CC(C)N(C(=O)n1oc(=O)n(-c2ccc(F)cc2F)c1=O)c1ccc(F)cc1F [Compound 22]")
2
>>> reported_measurement("Cc1nn(C)c(C)c1-n1c(=O)on(C(=O)N(c2ccc(F)cc2F)C(C)C)c1=O [Compound 76]")
0

Then there is this compound:
Documented Plant response rating, B. signalgrass of COc1ccc(-n2c(=O)on(C(=O)N(c3ccc(F)cc3)C(C)C)c2=O)cc1 [Compound 5] : 3

----------
# Test system: giant foxtail
# assay_remarks: Test B pre/postemergence giant foxtail
# Assay type: in vivo, Setaria faberii
# setup_conditions: Preemergence, Rate 250 g/ha; scale 0 (no effect) to 10 (complete control)
property_name: Giant foxtail plant response rating
Just the number, please.

Fill in: giant foxtail Giant foxtail plant response rating for CC(C)N(C(=O)n1oc(=O)n(C(C)C2=NOCC2)c1=O)c1ccccc1 (racemic) [Compound 729] = 9

----------
# Test system: crabgrass
# assay_remarks: Test B pre/postemergence crabgrass
# Assay type: in vivo, Digitaria sanguinalis
# setup_conditions: Preemergence, Rate 62 g/ha; scale of 0 to 10 where 0 is no effect and 10 is complete control
property_name: Crabgrass plant response rating
Just the number, please.

>>> reported_measurement("CC(C)N(C(=O)n1oc(=O)n(CC(=O)C2CCC2)c1=O)c1ccc(F)cc1F [Compound 642]")
6
>>> reported_measurement("CC(C)N(C(=O)n1oc(=O)n(C(C)C2=NOCC2)c1=O)c1ccccc1 (racemic) [Compound 729]")
7

Then there is this molecule:
Documented Crabgrass plant response rating of CC(C)N(C(=O)n1oc(=O)n(C2CC3CCC2C3)c1=O)c1ccc(F)cc1 (stereo not drawn) [Compound 327] : 0

----------
# System: morningglory
# assay_remarks: Test B pre/postemergence morningglory
# Assay type: in vivo, Ipomoea hederacea
# setup_conditions: Preemergence, Rate 250 g/ha; scale of 0 to 10 where 0 is no effect and 10 is complete control
# Protocol: […] At the same time, these crop and weed species were also treated with postemergence applications of test chemicals formulated in the same manner. […] Treated plants and controls were maintained in a greenhouse for twelve to sixteen days, after which all species were compared to controls and visually evaluated. […]
property_name: Morningglory plant response rating
Just the number, please.

A selection of reference data follows.
>>> reported_measurement("CCOC(=O)C(C)N(C(=O)n1oc(=O)n(C)c1=O)c1ccc(F)cc1 (centres unmarked)")
0
>>> reported_measurement("COCC(C)n1c(=O)on(C(=O)N(c2ccc(F)cc2F)C(C)C)c1=O (centres unmarked)")
2
>>> reported_measurement("CC(C)N(C(=O)n1oc(=O)n(Cc2nnsc2Cl)c1=O)c1ccc(F)cc1F")
0
>>> reported_measurement("CCc1cccc(CC)c1-n1c(=O)on(C(=O)N(c2ccc(F)cc2)C(C)C)c1=O")
0

Fill in: morningglory Morningglory plant response rating for `CC(C)N(C(=O)n1oc(=O)n(C2(C)CC2)c1=O)c1ccc(Cl)cc1` = 0

Fill in: morningglory Morningglory plant response rating for `CC(C)N(C(=O)n1oc(=O)n(C2CCCC2)c1=O)c1ccc(F)cc1` = 2

Fill in: morningglory Morningglory plant response rating for `CC(C)N(C(=O)n1oc(=O)n(CCCCF)c1=O)c1ccc(F)cc1` = 0

Fill in: morningglory Morningglory plant response rating for `COc1cc(C)cc(C)c1-n1c(=O)on(C(=O)N(c2ccc(F)cc2)C(C)C)c1=O` = 0

----------
# Test system: cocklebur
# assay_remarks: Test B pre/postemergence cocklebur
# Assay type: in vivo, Xanthium strumarium
# setup_conditions: Preemergence, Rate 500 g/ha; scale of 0 to 10 where 0 is no effect and 10 is complete control
# Experimental: […] At the same time, these crop and weed species were also treated with postemergence applications of test chemicals formulated in the same manner. […] Treated plants and controls were maintained in a greenhouse for twelve to sixteen days, after which all species were compared to controls and visually evaluated. […]
property_name: Plant response rating, Cocklebur
Just the number, please.

A selection of reference data follows.
>>> reported_measurement("CC(C)N(C(=O)n1oc(=O)n(Cc2ccccn2)c1=O)c1ccc(F)cc1 [Compound 267]")
0
>>> reported_measurement("COC(=O)C(CCO)n1c(=O)on(C(=O)N(c2ccc(Cl)cc2)C(C)C)c1=O (stereo not shown) [Compound 679]")
0
>>> reported_measurement("C=C(Cl)Cn1c(=O)on(C(=O)N(c2ccccc2)C(C)C)c1=O [Compound 608]")
0

Documented Plant response rating, Cocklebur of CCOC(=O)C(C)N(C(=O)n1oc(=O)n(-c2ccccc2C)c1=O)c1ccc(F)cc1 (stereo not shown) [Compound 247] : 0

Documented Plant response rating, Cocklebur of COC(C)n1c(=O)on(C(=O)N(c2ccc(F)cc2F)C(C)C)c1=O (stereo not shown) [Compound 593] : 0

Documented Plant response rating, Cocklebur of CC(C)N(C(=O)n1oc(=O)n(CC(C)[N+](=O)[O-])c1=O)c1ccc(F)cc1F (stereo not shown) [Compound 603] : 0

Documented Plant response rating, Cocklebur of CC(C)N(C(=O)n1oc(=O)n(C(C)CBr)c1=O)c1ccc(F)cc1F (stereo not shown) [Compound 594] : 2

Source listed as patent US6737383B1.
